Record set: IC50 | UniProt:Q15910 | literature, multiple sources.
Quantity: IC50 (nM)

Compound | U | IC50
Cc1cc(C)c(CNC(=O)c2ccc3cnn(C4CCCC4)c3c2C)c(=O)[nH]1 | nM | 6000
CCCC(C)n1ccc2c(C(=O)NCc3c(C)cc(C)[nH]c3=O)cc(-c3cn(C)c(=O)c4[nH]ccc34)cc21 (stereo not drawn) | nM | 2.8
CCN(c1cc(-c2ccc(OCCCNC(=O)C[C@@H]3N=C(c4ccc(Cl)cc4)c4c(sc(C)c4C)-n4c(C)nnc43)cc2)cc(C(=O)NCc2c(C)cc(C)[nH]c2=O)c1C)C1CCOCC1 | nM | 980

(a) Cc1cc(C)c(CNC(=O)c2cc(Br)nc3c2cnn3C2CCOCC2)c(=O)[nH]1
(b) Cc1cc(C)c(CNC(=O)c2cc(-c3cn(C)c(=O)c4[nH]ccc34)cc3[nH]ccc23)c(=O)[nH]1
(c) Cc1cc(C)c(CNC(=O)c2cc(C)n(-c3ccccc3)c2C)c(=O)[nH]1
(d) Cc1cc(C)c(CNC(=O)c2cc(Br)nc3c2cnn3C2CCN(C(=O)N(C)C)CC2)c(=O)[nH]1
Sort the 4 compounds by IC50; largest first, smallest last. Rank the items, then write their labels in that order.
c, a, b, d
(c: 5780 nM, a: 700 nM, b: 83 nM, d: 50 nM)

###

Record set: IC50 | Histone-lysine N-methyltransferase EZH2 (Homo sapiens) | literature, multiple sources.
Quantity: IC50 (µM)

Examples with answers:
Compound | Measured Result
CCC(C)n1ccc2c(C(=O)NCc3c(C)cc(C)[nH]c3=O)cc(-c3cn(C)c(=O)c4[nH]ccc34)cc21 (stereo not drawn) | 0.0023
Cc1cc(C)c(CNC(=O)c2cc(N3CCNCC3)nc3c2cnn3C(C)C)c(=O)[nH]1 | 1.6
CC1(C)CC(NC(=O)c2ccc(Oc3ccccc3C#N)cc2Cl)CC(C)(C)N1 | 37
CCN(c1cc(-c2ccc(OCCCCNC(=O)C[C@@H]3N=C(c4ccc(Cl)cc4)c4c(sc(C)c4C)-n4c(C)nnc43)cc2)cc(C(=O)NCc2c(C)cc(C)[nH]c2=O)c1C)C1CCOCC1 | 0.42

(1) Cc1cc(C)c(CNC(=O)c2cc(C)n(-c3cccc(NC(=O)CCCCCCC(=O)NO)c3)c2C)c(=O)[nH]1
(2) Cc1cc(C)c(CNC(=O)c2ccnc3c2cnn3C(C)C)c(=O)[nH]1
Between 1 and 2 , which one shows the smaller IC50 number? // return label of chosen record
2

###

Record set: IC50 | Histone-lysine N-methyltransferase EZH2 (Homo sapiens) | literature, multiple sources.
Quantity: IC50 (nM)

(P) Cc1cc(C)c(CNC(=O)c2cc(-c3ccc4c(c3)OCCO4)nc3c2cnn3C(C)C)c(=O)[nH]1
(Q) CC1(C)CC(OC(=O)c2ccc(Oc3cccc(-c4ccnnc4)c3C#N)c(Cl)c2)CC(C)(C)N1
(R) Cc1cc(C)c(CNC(=O)c2cc(C#N)cc3c2C(C)CN3C2CCCC2)c(=O)[nH]1 (stereo in doubt; 28e1)
Give the order of the entries above, sorted from least to greatest IC50. Rank the items, then write their labels in that order.
R, Q, P

###

Record set: pIC50 | Histone-lysine N-methyltransferase EZH2 (Homo sapiens, UniProt Q15910) | literature, multiple sources.
pIC50: −log10 of the molar value.
Quantity: pIC50

Examples with answers:
Compound | pIC50
Cc1[nH]c(=O)c(CNC(=O)c2cc(-c3cn(C)c(=O)c4[nH]ccc34)cc3c2ccn3C2CCCC2)c2c1CCCC2 | 8.08
COc1ccccc1Oc1ccc(C(=O)NC2CC(C)(C)NC(C)(C)C2)cc1 | 4.23
Cc1cc(C)c(CNC(=O)c2cc(Br)nc3c2cnn3C2CCN(C(=O)OC(C)(C)C)CC2)c(=O)[nH]1 | 6.70

(A) Cc1cc(C)c(CNC(=O)c2cc(C)n(C3CCCCC3)c2C)c(=O)[nH]1
(B) Cc1cc(C)c(CNC(=O)c2cc(-c3ccc(CN4CCOCC4)cc3)cc3c2C(C)CN3C2CCOCC2)c(=O)[nH]1 (stereo in doubt; 34e1)
(C) Cc1cc(C)c(CNC(=O)c2cc(C3=CC(C)(C)NC(C)(C)C3)nc3c2cnn3C)c(=O)[nH]1
(D) CC1(C)CC(NC(=O)c2ccc(Oc3ccccc3C#N)c(F)c2)CC(C)(C)N1
(E) Cc1cc(C)c(CNC(=O)c2cc(-c3cn(C)c(=O)c4[nH]ccc34)cc3c2c(C)cn3CC2CCCCC2)c(=O)[nH]1
Sort entries by pIC50 from minimum to maximum value. Rank the items, then write their labels in that order.
C, A, D, B, E

(P) COc1cc2c(NC3CCN(C(C)C)CC3)nc(N3CCC(F)(F)CC3)nc2cc1OCCCN1CCCC1
(Q) CC1(C)CC(NC(=O)c2ccc(Oc3ccccc3C#N)c(C#N)c2)CC(C)(C)N1
(R) Cc1cc(C)c(CNC(=O)c2cc(-c3ccc(N4CCNCC4)nc3)cc3c2C(C)CN3C2CCCC2)c(=O)[nH]1 (stereo in doubt; 40e1)
(S) Cc1cc(C)c(CNC(=O)c2cc(C#N)cc3c2CCN3C2CCOCC2)c(=O)[nH]1
Sort entries by pIC50 from minimum to maximum value. Rank the items, then write their labels in that order.
S, P, Q, R

(A) COc1cc(C(=O)NCc2c(C)cc(C)[nH]c2=O)c2cnn(C(C)C)c2n1
(B) CC1(C)CC(NC(=O)c2ccc(Oc3cccc(-c4ccnnc4)c3C#N)c(Cl)c2)CC(C)(C)O1
(C) Cc1cc(C)c(CNC(=O)c2cc(C3=CC(C)(C)NC(C)(C)C3)nc3c2cnn3C(C)C)c(=O)[nH]1
(D) CC1(C)CC(NC(=O)c2ccc(Sc3ccccc3)cc2)CC(C)(C)N1
Sort entries by pIC50 from minimum to maximum value. Rank the items, then write their labels in that order.
D, A, B, C

(1) Cc1cc(C)c(CNC(=O)c2cc(-c3cnc(N4CCNCC4)nc3)cc3c2C(C)CN3C2CCOCC2)c(=O)[nH]1 (stereo in doubt; 45e2)
(2) CC#CC(=O)NC12CC(NC3=C(Cl)C(=O)c4cccnc4C3=O)(C1)C2
Pick the one with the larger pIC50: 1 vs 2 // return label of chosen record
2
(2: 5.98, 1: 5.67)

###

Record set: IC50 | Histone-lysine N-methyltransferase EZH2 (Homo sapiens, UniProt Q15910) | literature, multiple sources.
Quantity: IC50 (µM)

Examples with answers:
Entry Smiles | IC50 (µM)
Cc1cc(C)c(CNC(=O)c2cc(C#N)cc3c2CCN3C(C)C)c(=O)[nH]1 | 26.6
CCN(c1cc(-c2ccc(CN3CCN(C(=O)CCCCCCCC(=O)N[C@H](C(=O)N4C[C@H](OCc5ccccc5)C[C@H]4C(=O)NCc4ccc(-c5scnc5C)cc4)C(C)(C)C)CC3)cc2)cc(C(=O)NCc2c(C)cc(C)[nH]c2=O)c1C)C1CCOCC1 | 0.013
CC1(C)CC(NC(=O)c2ccc(Oc3ccccc3)cc2)CC(C)(C)N1 | 51
CCC(CC)n1ccc2c(C(=O)NCc3c4c(c(C)[nH]c3=O)CCCC4)cc(-c3cn(C)c(=O)c4[nH]ccc34)cc21 | 0.016
Cc1[nH]c(=O)c(CNC(=O)c2cc(-c3cn(C)c(=O)c4[nH]ccc34)cc3c2cnn3C2CCCC2)c2c1CCCC2 | 0.046

(I) Cc1[nH]c(=O)c(CNC(=O)c2cc(-c3cn(C)c(=O)c4[nH]ccc34)cc3c2ccn3C(C)C)c2c1CCCC2
(II) Cc1cc(C)c(CNC(=O)c2cc(-c3cn(C)c(=O)c4[nH]ccc34)cc3c2ccn3CC2CCCCC2)c(=O)[nH]1
Between I and II , which one shows the smaller IC50 number? // return label of chosen record
I
(I: 0.0123 µM, II: 0.063 µM)

###

Record set: IC50 | Histone-lysine N-methyltransferase EZH2 (Homo sapiens) | literature, multiple sources.
Quantity: IC50 (nM)

(a) Cc1[nH]c(=O)c(CNC(=O)c2cc(-c3cn(C)c(=O)c4[nH]ccc34)cc3c2ccn3CC2CCCCC2)c2c1CCCC2
(b) CC1(C)CC(NC(=O)c2ccc(Oc3ccccc3C#N)c(Cl)c2)CC(C)(C)N1CCO
(c) CC[C@H](C)n1nc(C)c2c(C(=O)NCc3c(C)cc(C)[nH]c3=O)cc(-c3ccc(N4CCNCC4)nc3)cc21
Give the order of the entries above, sorted from least to greatest IC50. Rank the items, then write their labels in that order.
c, a, b
(c: 10.8 nM, a: 80 nM, b: 4900 nM)

###

pIC50: −log10 of the molar value.
Record set: pIC50 | Histone-lysine N-methyltransferase EZH2 (Homo sapiens, UniProt Q15910) | literature, multiple sources.
Quantity: pIC50

Molecule | System Tested | Quantity | Measured Result
C#Cc1ccccc1Oc1ccc(C(=O)NC2CC(C)(C)NC(C)(C)C2)cc1 | Histone-lysine N-methyltransferase EZH2 (Homo sapiens, UniProt Q15910) | pIC50 | 4.72
Cc1cc(C)c(CNC(=O)c2cc(-c3cnc(N4CCNCC4)c4ccccc34)cc3c2C(C)CN3C2CCOCC2)c(=O)[nH]1 (stereo in doubt; 36e1) | Histone-lysine N-methyltransferase EZH2 (Homo sapiens, UniProt Q15910) | pIC50 | 7.77
Cc1cc(C)c(CNC(=O)c2cccc3c2ccn3C(C)C)c(=O)[nH]1 | Histone-lysine N-methyltransferase EZH2 (Homo sapiens, UniProt Q15910) | pIC50 | 5.51
Cc1cc(C)c(CNC(=O)c2cc(-c3ccc(N4CCN(CCNC(=O)CC56CC7CC(CC(C7)C5)C6)CC4)nc3)cc3c2cnn3C(C)C)c(=O)[nH]1 | Histone-lysine N-methyltransferase EZH2 (Homo sapiens, UniProt Q15910) | pIC50 | 6.92

(P) CC1(C)CC(NC(=O)c2ccc(Oc3ccccc3C(C)(C)C)cc2)CC(C)(C)N1
(Q) Cc1cccc(Oc2ccc(C(=O)NC3CC(C)(C)NC(C)(C)C3)cc2Cl)c1C#N
Between P and Q , which one shows the smaller pIC50 number? // return label of chosen record
P
